- experiment_notes: Stability of compound at pH 1.5 assessed as change in purity at 1 mg/ml incubated for 4 hrs by HPLC analysis
- Type: physicochemical
- settings: buffer, pH 1.5, 4 h
parameter: Activity (%)
Value expressed in %; do not type the unit.

Some molecules with known Activity results, for comparison:
smiles_record: CC(C)C(=O)OCn1c(=O)ccn([C@@H]2O[C@](F)(COC(=O)C(C)C)[C@@H](O)[C@H]2O)c1=O
result_value: -2

smiles_record: CC(=O)O[C@H]1[C@H](n2ccc(=O)n(COC(=O)c3cccnc3)c2=O)O[C@](F)(COC(=O)C(C)C)[C@H]1OC(C)=O
result_value: -2

smiles_record: CC(C)C(=O)OC[C@@]1(F)O[C@@H](n2ccc(=O)n(COC(=O)c3cccnc3)c2=O)[C@@H]2OC(=O)O[C@@H]21
result_value: -2.1

smiles_record: O=c1ccn([C@@H]2O[C@](F)(CO)[C@@H](O)[C@H]2O)c(=O)[nH]1
result_value: -27.9

smiles_record: CC(C)C(=O)OC[C@@]1(F)O[C@@H](n2ccc(=O)n(COC(=O)[C@@H]3CCCN3)c2=O)[C@H](OC(=O)C(C)C)[C@@H]1OC(=O)C(C)C.Cl
result_value: -1.3

smiles_record: CC(C)C(=O)OCn1c(=O)ccn([C@@H]2O[C@](F)(COC(=O)C(C)C)[C@@H](OC(=O)C(C)C)[C@H]2OC(=O)C(C)C)c1=O
result_value: -1.5

Given `CCC(=O)OC[C@@]1(F)O[C@@H](n2ccc(=O)n(COC(=O)c3cccnc3)c2=O)[C@H](OC(=O)CC)[C@@H]1OC(=O)CC` , state its recorded Activity.
-1.9

====

- experiment_notes: Stability of compound at pH 4.0 assessed as change in purity at 1 mg/ml incubated for 12 hrs by HPLC analysis
- Format: physicochemical
- settings: buffer, pH 4, 12 h
Parameter Activity: see the listing below.
Write the number in % without appending the unit.

smiles_record: CC(C)C(=O)OC[C@@]1(F)O[C@@H](n2ccc(=O)n(COC(=O)c3cccnc3)c2=O)[C@@H]2OC(=O)O[C@@H]21
Activity [%]: -5.4
//
smiles_record: CC(C)C(=O)OC[C@@]1(F)O[C@@H](n2ccc(=O)n(COC(=O)[C@@H]3CCCN3)c2=O)[C@H](OC(=O)C(C)C)[C@@H]1OC(=O)C(C)C.Cl
Activity [%]: -62.4
//
smiles_record: CCC(=O)OC[C@@]1(F)O[C@@H](n2ccc(=O)n(COC(=O)c3cccnc3)c2=O)[C@H](OC(=O)CC)[C@@H]1OC(=O)CC
Activity [%]: -0.1

Which value of Activity has been reported for `CC(=O)OC[C@@]1(F)O[C@@H](n2ccc(=O)n(COC(=O)c3cccnc3)c2=O)[C@H](OC(C)=O)[C@@H]1OC(C)=O` in the records?
-0.1

Bench note: what Activity did `CC(C)C(=O)O[C@H]1[C@H](n2ccc(=O)n(COC(=O)c3cccnc3)c2=O)O[C@](F)(COC(=O)c2cccnc2)[C@H]1OC(=O)C(C)C` show?
-0.8

====

- experiment_notes: Stability of compound at pH 4.0 assessed as change in purity at 1 mg/ml incubated for 4 hrs by HPLC analysis
- Format: physicochemical
- settings: buffer, pH 4, 4 h
Reported Activity is given for each of the following molecules.
Numeric only. Scale: %

The cases that follow already have their Activity on record.
smiles_record: CC(=O)OC[C@@]1(F)O[C@@H](n2ccc(=O)n(COC(=O)c3cccnc3)c2=O)[C@H](OC(C)=O)[C@@H]1OC(C)=O
u: %
Activity: 0

smiles_record: CC(C)C(=O)OC[C@@]1(F)O[C@@H](n2ccc(=O)n(COC(=O)[C@@H]3CCCN3)c2=O)[C@H](OC(=O)C(C)C)[C@@H]1OC(=O)C(C)C.Cl
u: %
Activity: -35.2

smiles_record: CC(C)C(=O)OCn1c(=O)ccn([C@@H]2O[C@](F)(COC(=O)C(C)C)[C@@H](O)[C@H]2O)c1=O
u: %
Activity: -0.9

smiles_record: O=c1ccn([C@@H]2O[C@](F)(CO)[C@@H](O)[C@H]2O)c(=O)[nH]1
u: %
Activity: -8.8

smiles_record: CC(C)C(=O)O[C@H]1[C@H](n2ccc(=O)n(COC(=O)c3cccnc3)c2=O)O[C@](F)(COC(=O)c2cccnc2)[C@H]1OC(=O)C(C)C
u: %
Activity: -0.6

What measured Activity goes with `CC(C)C(=O)OCn1c(=O)ccn([C@@H]2O[C@](F)(COC(=O)C(C)C)[C@@H](OC(=O)C(C)C)[C@H]2OC(=O)C(C)C)c1=O` ?
0

Any idea what its Activity is? The molecule is `CC(C)C(=O)OC[C@@]1(F)O[C@@H](n2ccc(=O)n(COC(=O)c3cccnc3)c2=O)[C@H](OC(=O)C(C)C)[C@@H]1OC(=O)C(C)C`
0

Quick one: Activity for `CC(C)C(=O)OC[C@@]1(F)O[C@@H](n2ccc(=O)n(COC(=O)[C@@H]3CCCN3C)c2=O)[C@H](OC(=O)C(C)C)[C@@H]1OC(=O)C(C)C.Cl` ?
-10.9

Fill blank: measured Activity of the molecule `CC(C)C(=O)OC[C@@]1(F)O[C@@H](n2ccc(=O)n(COC(=O)[C@@H](N)C(C)C)c2=O)[C@H](OC(=O)C(C)C)[C@@H]1OC(=O)C(C)C.Cl` is ____.
-0.6

Item `CC(C)C(=O)OC[C@@]1(F)O[C@@H](n2ccc(=O)n(COC(=O)c3cccnc3)c2=O)[C@@H]2OC(=O)O[C@@H]21` has what recorded Activity?
-1.9

Reported Activity for `CC(=O)O[C@H]1[C@H](n2ccc(=O)n(COC(=O)c3cccnc3)c2=O)O[C@](F)(COC(=O)C(C)C)[C@H]1OC(C)=O` : what is it?
-0.1

I have this molecule here, `CCC(=O)OC[C@@]1(F)O[C@@H](n2ccc(=O)n(COC(=O)c3cccnc3)c2=O)[C@H](OC(=O)CC)[C@@H]1OC(=O)CC` , and I need its recorded Activity.
0
